System: OVCAR-4 ovarian
Assay: NCI-60 one-dose screen, 48 h
Conditions: 10 µM unless noted
This is part of a sample that, as a whole, favours compounds with a hit. Of some 83,000 tested, about 20% had one in any assay. Calls of active or inactive are those of the source. The calls were made as follows: active = growth percent below 10; inactive = the rest.
Could you please pick one outcome from this set? true for active, false for inactive

Ask | Test call, this compound: CSc1nc(NCCCNc2ccnc3cc(Cl)ccc23)cc(-c2ccccc2)n1
Reply | false

Continuing:
Ask | Test call, this compound: C/C(=C(/c1ccc(O)cc1)c1ccc(OCCN(C)C)cc1)c1ccccc1
Reply | false

Ask | Test call, this compound: CCOC(=O)CC(=O)c1c(C)cc(C)cc1C
Reply | false

Ask | Test call, this compound: COc1cc(NCCCCN=C(N)NC(N)=NC(C)C)c2ncccc2c1
Reply | true

Ask | Test call, this compound: COc1cc(/C=C2\CN(C(=O)CCN3CCC(=NO)CC3)C/C(=C\c3cc(OC)c(OC)c(OC)c3)C2=O)cc(OC)c1OC
Reply | true

---

Test system: EKVX NSCLC
Experiment: NCI-60 one-dose screen, 48 h (100 = growth as untreated, 0 = no growth, -100 = all killed)
Details: 10 µM unless noted
The panel holds about 83,000 compounds, 20% with a hit somewhere; the sample as a whole holds those more often. Calls of active or inactive are those of the source. How the source made its calls: active means growth percent below 10; inactive means the rest.
measurement-label: growth

For orientation, consider the following solved cases.
Ask | Supply reported growth belonging to this compound: Nc1c(C(=O)Nc2ccccc2)sc2nc3c(cc12)CN(CCc1ccccc1)CC3
Reply | 88.3% (inactive)

Ask | Supply reported growth belonging to this compound: COC(=O)[C@H](C(C)C)n1c(=O)c2cc(OC)c(OC)cc2c2cnc3[nH]ccc3c21
Reply | 47.5% (inactive)

Continuing:
Ask | Supply reported growth belonging to this compound: CCCCCn1cnc2c(=S)nc[nH]c21
Reply | 108% (inactive)

---

System: SNB-19 CNS
Assay: NCI-60 one-dose screen, 48 h
Conditions: 10 µM unless noted
Method: Growth inhibition of the SNB-19 human tumor cell line is measured as a screen for anti-cancer activity. Cells are grown in 96 well plates and exposed to the test compound for 48 hours. Compounds are tested at a single concentration, which is 10^-5 M for most compounds. The reported endpoint is percent growth (GI% or GIPRCNT), where numbers from 0 - 100% represent growth inhibition, and numbers from -100% - 0 represent cell death. For example, a value of 40 represents 60% growth inhibition. […]
About 83,000 compounds went through this panel and 20% of them were active in at least one assay; those are over-represented in the sample as a whole. Activity calls are given as the source filed them. How the source made its calls: active means growth percent below 10; inactive means the rest.
Could you please pick one outcome from this set? true (1) for active, false (0) for inactive

Ask | Test call, this compound: CC(=O)N1CC(Nc2ccc(OC(F)(F)F)cc2)=CC1=O
Reply | false (0)

Ask | Test call, this compound: NCc1cn2cc(Cl)sc2n1
Reply | false (0)

Ask | Test call, this compound: CCCCCCNC(=O)Oc1ccc(/C(=C(\C)c2ccccc2)c2ccc(OCCN(CC)CC)cc2)cc1
Reply | false (0)

Continuing:
Ask | Test call, this compound: COc1cc(/C=C2\CN(C(=O)CCN3CCC(=NO)CC3)C/C(=C\c3cc(OC)c(OC)c(OC)c3)C2=O)cc(OC)c1OC
Reply | true (1)

Ask | Test call, this compound: COc1cc(C2C(C(=O)c3cccs3)=C(O)C(=O)N2CCN2CCOCC2)cc(OC)c1OC (centres undefined)
Reply | false (0)

Ask | Test call, this compound: C/C(Cc1ccc(Cl)cc1)=C(\c1ccc(OCCN2CCCCCC2)cc1)c1ccc(OC(=O)Cc2ccccc2)cc1
Reply | false (0)

Ask | Test call, this compound: CCC(C)[C@@H]1NC(=O)[C@@H]2CCCN2C(=O)[C@H](Cc2ccccc2)NC(=O)[C@@H]2CCCN2C(=O)[C@H](Cc2ccccc2)NC(=O)[C@@H]2CCCN2C(=O)[C@H](Cc2ccccc2)NC1=O (some centres undefined)
Reply | false (0)

Ask | Test call, this compound: COc1ccc(-c2cc(-c3ccc(N(C)C)cc3)nc(NC(=O)c3ccncc3)n2)cc1
Reply | false (0)

Ask | Test call, this compound: O=C1c2cc3c(cc2-c2c1c1cc(F)c(F)cc1c(=O)n2C[C@H](O)CO)OCO3
Reply | true (1)

Ask | Test call, this compound: C#Cc1nc2ccccc2c(=O)[nH]1
Reply | false (0)

Ask | Test call, this compound: Nc1c(C(=O)Nc2cccc3c2OCCO3)sc2nc3c(cc12)CN(Cc1ccccc1)CC3
Reply | false (0)

Ask | Test call, this compound: O=c1[nH]c(-c2ccccn2)nc2sc3c(c12)CCCCC3
Reply | false (0)

Ask | Test call, this compound: C[C@@]1(N2C(=O)OC[C@@H]2c2ccccc2)C(=O)N([C@H](CC(=O)N2CCC(N3CCCCC3)CC2)C(=O)NCc2cccc(C(F)(F)F)c2)[C@@H]1/C=C/c1ccccc1
Reply | false (0)

Ask | Test call, this compound: CC(C)[C@@H]1CC[C@]2(C(=O)NCCCCN=C(N)N)CC[C@]3(C)[C@H](CC[C@@H]4[C@@]5(C)CCC(=O)C(C)(C)[C@@H]5CC[C@]43C)[C@@H]12
Reply | false (0)

Ask | Test call, this compound: Cn1cc(-c2ccc(-c3cn(C)c4ncccc34)[nH]2)c2cccnc21
Reply | false (0)

Ask | Test call, this compound: COc1cc(OC)c(/C=C/S(=O)(=O)Cc2ccc(OC)c(N)n2)c(OC)c1
Reply | false (0)

Ask | Test call, this compound: O=C1CC(c2nc3ccccc3s2)CN1C1CCCCC1 (centres undefined)
Reply | false (0)

Ask | Test call, this compound: COc1ccc(C(=O)/C=C/c2cc3ccccc3[nH]c2=O)cc1
Reply | false (0)

Ask | Test call, this compound: CCOC(=O)c1ccc2c(c1)nc(/C=C/c1ccc(Cl)cc1)n2-c1cc(C(C)(C)C)[nH]n1
Reply | false (0)

---

Test system: T-47D breast
Assay: NCI-60 one-dose screen, 48 h (100 = growth as untreated, 0 = no growth, -100 = all killed)
Settings: 10 µM unless noted
Compounds without any hit were thinned out: in the full panel of roughly 83,000, 20% have a hit. Calls of active or inactive are those of the source. The calls were made as follows: active = growth percent below 10; inactive = the rest.
measurement-label: growth

For orientation, consider the following solved cases.
Ask | Supply reported growth belonging to this molecule: CCC(=O)Oc1ccc(/C(=C(\C)c2ccccc2)c2ccc(OCCN(CC)CC)cc2)cc1
Reply | 43.8% (inactive)

Ask | Supply reported growth belonging to this molecule: O=C1/C(=C/c2ccc(F)cc2)CN(C(=O)CCN2CCC(=NO)CC2)C/C1=C\c1ccc(F)cc1
Reply | -18.9% (active)

Ask | Supply reported growth belonging to this molecule: Cc1sc2nc3[nH]/c(=C\c4ccc(Cl)cc4)c(=O)n3c(=O)c2c1C
Reply | 103% (inactive)

Ask | Supply reported growth belonging to this molecule: COc1ccc(/C=C2\CN(C(=O)CCN3CCC(=NO)CC3)C/C(=C\c3ccc(OC)cc3)C2=O)cc1
Reply | 23.3% (inactive)

Attention now shifts to the item below.
Ask | Supply reported growth belonging to this molecule: O=c1cc(-c2ccccc2)[nH]c2ccccc12
Reply | 47.9% (inactive)

---

Test system: MOLT-4 leukemia
Test: NCI-60 one-dose screen, 48 h
Conditions: 10 µM unless noted
This is part of a sample that, as a whole, favours compounds with a hit. Of some 83,000 tested, about 20% had one in any assay. The source made the active and inactive calls. How the source made its calls: active means growth percent below 10; inactive means the rest.
Could you please pick one outcome from this set? active, inactive

Worked set:
Ask | Test call, this compound: Clc1cccc(Nc2nc(Nc3cnc4ccccc4c3)c3[nH]cnc3n2)c1
Reply | inactive

Ask | Test call, this compound: CCN(CC)Cc1cc(Nc2c3ccc(Cl)cc3nc3c(C)cccc23)ccc1O
Reply | active

Continuing:
Ask | Test call, this compound: O=C1Nc2ccccc2/C1=C/C(=N/c1nnc(-c2ccc(Cl)cc2)s1)c1ccccc1
Reply | active

Ask | Test call, this compound: COc1cc2cc(COc3nccc(-c4ccc(Cl)cc4)n3)c(=O)[nH]c2cc1OC
Reply | inactive

Ask | Test call, this compound: C=C1CC2(OC1=O)C(=O)N(CCCCCCCCCCCCN1C(=O)C3(CC(=C)C(=O)O3)c3ccccc31)c1ccccc12 (stereo unspecified)
Reply | active

Ask | Test call, this compound: Nc1cc(-c2nc3sccn3c2-c2ccnc(NCCCNS(=O)(=O)c3ccc(F)cc3)n2)ccc1F
Reply | inactive

Ask | Test call, this compound: Nc1c(C(=O)Nc2cccc3c2OCCO3)sc2nc3c(cc12)C(=O)CCC3
Reply | inactive

Ask | Test call, this compound: C#Cc1nc(Nc2cc(C)[nH]n2)c2ccccc2n1
Reply | active

Ask | Test call, this compound: O=C1c2cc3c(cc2-c2c1c1cc(F)c(F)cc1c(=O)n2C[C@H](O)CO)OCO3
Reply | active

Ask | Test call, this compound: O=C(O)c1ccc(=O)[nH]n1
Reply | inactive

Ask | Test call, this compound: O=C(Nc1ccc(Oc2ccc(F)cc2)c(Cl)c1)c1cccnc1
Reply | inactive

Ask | Test call, this compound: CC[C@H](Nc1cc(C)nc(N)n1)c1nc2cccc(NCc3ccc(C(=O)NO)cc3)c2c(=O)n1-c1ccccc1
Reply | active

Ask | Test call, this compound: CC(C)c1c(C(=O)Nc2ccccc2)c(-c2ccccc2)c(-c2ccc(F)cc2)n1CC[C@@H]1CC=CC(=O)O1
Reply | active
